Task for the reader: assign each of the following compounds its reported growth.
- Test system: NCI-H322M lung
- ASSAY OVERVIEW: NCI-60 one-dose screen, 48 h (100 = growth as untreated, 0 = no growth, -100 = all killed)
- ASSAY SETUP: 10 µM unless noted
Compounds without any hit were thinned out: in the full panel of roughly 83,000, 20% have a hit. Activity calls are given as the source filed them. How the source made its calls: active means growth percent below 10; inactive means the rest.

Take a look at these entries with their results.
COc1cc(C2CC(c3cc(OC)c(OC)c(OC)c3)=Nc3c(N)nc(N)nc3N2)ccc1Oc1nc(Nc2ccc(F)cc2)nc(N(C)C)n1 (stereo not drawn) :: 94.4% (inactive)
NS(=O)(=O)c1cccc(Nc2nc(SCC(=O)c3ccc(F)cc3)nc3ccccc23)c1 :: 22.9% (inactive)
Cc1nn(-c2ccccc2)c2nc(C)n(C(=O)N/N=C/c3ccccc3)c(=O)c12 :: 103% (inactive)
O=C(N/N=C/c1ccc(B(O)O)s1)c1[nH]c2ccc(Br)cc2c1-c1ccccc1 :: -79.1% (active)

For every listed record, write down its growth.
1. COc1ccc(OC)c(Cn2cc(C#N)c(N)c2C(=O)c2ccc(Br)cc2)c1
2. CC[C@]12C=CCN3CC[C@]4(C(=C(C(=O)OC)C1)Nc1cc(OC)c([C@@H]5[C@H]6O[C@H]6[C@@]6(CC)CC(C(=O)OC)=C7Nc8cc(O)ccc8[C@@]78CCN5[C@@H]68)cc14)[C@@H]32
3. Cn1cc(-c2cc(N)n3nc(-c4c[nH]c5ccc(F)cc45)cc3n2)c2cccnc21
4. CC1=C(C(=O)Nc2ccccc2)C(c2cccc3ccccc23)n2c(nc3ccccc32)N1 (stereo not drawn)
5. CCOC(=O)/C(F)=C/C1CC1CCc1ccc(OCC)cc1 (stereo not drawn)
6. NS(=O)(=O)c1ccc(Nc2nc(N/N=C/c3cc(Br)c(O)c(Br)c3)nc(Nc3ccccc3)n2)cc1
7. NS(=O)(=O)c1ccc(N2N=C(c3ccc(NC(=O)Nc4ccccc4)cc3)CC2c2ccc(Br)cc2)cc1 (stereo not drawn)

1: 85.8% (inactive); 2: 33.6% (inactive); 3: -37.5% (active); 4: 44% (inactive); 5: 82.5% (inactive); 6: 37.6% (inactive); 7: -87.3% (active)

For every listed record, write down its growth.
1. CC1CCc2c(sc3nc(SCC(=O)c4cccc([N+](=O)[O-])c4)n(-c4ccccc4)c(=O)c23)C1 (stereo not drawn)
2. Cc1cnc2ccc(Oc3ccccc3-c3ccccc3)nn12

["97.9% (inactive)", "103% (inactive)"]

###

- Test system: UO-31 renal
- ASSAY OVERVIEW: NCI-60 one-dose screen, 48 h
- ASSAY SETUP: 10 µM unless noted
Compounds without any hit were thinned out: in the full panel of roughly 83,000, 20% have a hit. The source made the active and inactive calls. The calls were made as follows: active = growth percent below 10; inactive = the rest.
Choose the fitting class; nothing outside 1 (yes) for active, 0 (no) for inactive is accepted.

O=C1c2cccc3c(N4CCN(c5ccccc5)CC4)ccc(c23)C(=O)N1c1cccc(-c2nn(-c3ccccc3)cc2-c2nc3ccccc3s2)c1 :: 0 (no)
CN1C(=O)/C(=C/c2ccco2)S/C1=N/c1nccs1 :: 0 (no)
COc1c2c(cc3c1C(CCc1ccccc1)N(C)CC3)OCO2 (stereo not given) :: 0 (no)
COc1ccc2[nH]c(O)c(N=Nc3nc(-c4ccccc4)cs3)c2c1 :: 1 (yes)

Kindly consider the entry below.
Per the records of this test, what outcome belongs to "COc1ccc(NC(=O)N/N=C/c2c[nH]c3ccccc23)cc1" ?
0 (no)

###

- System: CAKI-1 renal
- ASSAY OVERVIEW: NCI-60 one-dose screen, 48 h (100 = growth as untreated, 0 = no growth, -100 = all killed)
- ASSAY SETUP: 10 µM unless noted
The panel holds about 83,000 compounds, 20% with a hit somewhere; the sample as a whole holds those more often.
Lab note - cut at 80% for growth: criterion met if strictly below, criterion not met if not.

Nc1cc(-c2c[nH]c3ccc(Cl)cc23)nc2cc(-c3c[nH]c4ccccc34)nn12 :: criterion met
CCCCNc1ccc2c3c(cccc13)C(=O)N(NCC(O)COc1ccc3c(C)cc(=O)oc3c1)C2=O (configuration not stated) :: criterion not met
Cc1ccc(NC(=O)N/N=C/c2c[nH]c3ccccc23)c(C)c1 :: criterion met
Cc1cc(=O)oc2cc(OCC(O)CNN3C(=O)c4cccc5c(N6CCN(C)CC6)ccc(c45)C3=O)ccc12 (configuration not stated) :: criterion not met
COc1ccccc1/C=C/c1cccc(NC(=S)NCCCCN(C)C)c1 :: criterion met
N#CC1=C(c2cccs2)Nc2c(c(-c3ccccc3)nn2-c2ccccc2)C12C(=O)Nc1ccc(Br)cc12 (configuration not stated) :: criterion met
CCCSc1nnc(-c2sc3nc4ccccc4n3c2C)o1 :: criterion not met
Nc1nnc(-c2cncc(Br)c2)c(-c2c[nH]c3ccc(Br)cc23)n1 :: criterion met

Answer whether the molecule CC1=C(C(=O)Nc2ccccc2)C(c2ccc3ccccc3c2)n2c(nc3ccccc32)N1 (configuration not stated) has growth strictly less than 80%
criterion met

Answer whether the molecule "Cc1cccc(C)c1Nc1nnc(-c2c[nH]c3ccccc23)o1" has growth strictly less than 80%
criterion not met

Answer whether the molecule "CN(C)c1nc(NCCNS(=O)(=O)c2ccc(C(=O)/C=C/c3ccc(C(F)(F)F)cc3)cc2)nc(N2CCOCC2)n1" has growth strictly less than 80%
criterion met

###

- Test system: HCT-116 colon
- ASSAY OVERVIEW: NCI-60 one-dose screen, 48 h
- ASSAY SETUP: 10 µM unless noted
The panel holds about 83,000 compounds, 20% with a hit somewhere; the sample as a whole holds those more often. Activity calls are given as the source filed them. Rule for the calls: active = growth percent below 10; inactive = the rest.
Choose the fitting class; nothing outside yes = active, no = inactive is accepted.

// below: answered compounds
COc1cc(CNC(=O)C[C@H](C)CCC=C(C)C)ccc1OCc1cn(-c2cccc(C(F)(F)F)c2)nn1 :: no
COc1ccc(-c2cc(-c3cc(C(C)C)c(O)cc3C)nn2-c2ccc(S(N)(=O)=O)cc2)cc1 :: no
COc1c(F)ccc(C(=O)Nc2ccc3nc(NC(=O)C4CCCN(S(=O)(=O)c5ccc(C(C)(C)C)cc5)C4)sc3c2)c1F (centres undefined) :: no
COc1cc(/C=C/C(=O)c2cnn(-c3cc(=O)[nH]c4ccc(C)cc34)c2C)cc(OC)c1OC :: yes
NNc1ncnc2sc3c(c12)CCN(Cc1ccccc1)C3 :: no
O=C(CSc1nc2ccccc2c(=O)[nH]1)Nc1ccccc1C(=O)O :: no
COC(=O)c1c(C(=O)OC)c2c3ccccc3c3ccccc3n2c1C(=O)C(F)(F)F :: no
CCC1(OC(=O)c2ccccc2SSCCOC(=O)CCCCC2SCC3NC(=O)NC32)C(=O)OCc2c1cc1n(c2=O)Cc2cc3ccccc3nc2-1 (centres undefined) :: no
CCCCN1C(=O)/C(=C\C(=O)c2cc3ccccc3oc2=O)c2ccccc21 :: no
COc1ccc2c(c1)c(-c1cc(N)n3nc(-c4c[nH]c5ccccc45)cc3n1)cn2C :: yes

Per the records of this test, what outcome belongs to "c1ccc(CSc2nnc(-c3ccc4nc(-c5ccccc5)[nH]c4c3)o2)cc1" ?
yes

Per the records of this test, what outcome belongs to "N/C(=N\c1nc2ccc([N+](=O)[O-])cc2s1)NC(=O)Nc1ccccc1Cl" ?
yes

Per the records of this test, what outcome belongs to "CC(=O)C[n+]1cccc2c3ccccc3ccc21" ?
no

###

- System: DU-145 prostate
- ASSAY OVERVIEW: NCI-60 one-dose screen, 48 h (100 = growth as untreated, 0 = no growth, -100 = all killed)
- ASSAY SETUP: 10 µM unless noted
The panel holds about 83,000 compounds, 20% with a hit somewhere; the sample as a whole holds those more often.
Binning rule for recorded growth: bottom: < 30%; middle: ≥ 30% and < 70%; top: ≥ 70%

// below: answered compounds
Oc1cncc(-c2ccc3ncnc(N4CCc5cc(F)c(Cl)cc54)c3c2)c1 :: middle
Cc1ccc(N=Nc2c(N)nn3c(-c4cc5cc(Br)ccc5oc4=O)ccnc23)cc1 :: middle
Cn1cc(-c2cc(N)n3nc(-c4c[nH]c5ccc(Cl)cc45)cc3n2)c2cccnc21 :: bottom
O=C(CSc1nc2c(c(=O)[nH]1)CCCC2)Nc1ccccc1C(=O)O :: top
Cc1ccc2nc(NC(=O)Nc3cccc(Cl)c3)sc2c1 :: top

Kindly consider the entry below.
Class (by measured growth) for "O=C(Nc1nc2ccc([N+](=O)[O-])cc2s1)Nc1ccccc1F"
bottom

###

- Test system: NCI-H226 lung
- ASSAY OVERVIEW: NCI-60 one-dose screen, 48 h (100 = growth as untreated, 0 = no growth, -100 = all killed)
- ASSAY SETUP: 10 µM unless noted
About 83,000 compounds went through this panel and 20% of them were active in at least one assay; those are over-represented in the sample as a whole.
Returns true (1) if the recorded growth is greater than or equal to 20%, and false (0) otherwise.

// below: answered molecules
C=CC[n+]1cccc2c3ccccc3ccc21 :: true (1)
O=C1Nc2cc(-c3ccc(NS(=O)(=O)c4ccc(F)c(Cl)c4)cc3)ccc2/C1=C/c1ccc[nH]1 :: true (1)
COc1cc2cc(C(=O)N3C[C@@H](CCl)c4c3cc(OC(=O)N(CCC(=O)N3CCN(C)CC3)[C@H]3CCSSC3)c3ccccc43)[nH]c2c(OC)c1OC :: false (0)

Hi, just wondering whether "OCCn1cc(-c2nc3ccc4[nH]ncc4c3c3c2CCCC3)cn1" shows growth of 20% or higher.
false (0)

Hi, just wondering whether "COc1ccc(-c2nnc3c(/C=C/c4ccc(Br)cc4)nc4ccccc4n23)cc1" shows growth of 20% or higher.
true (1)

Hi, just wondering whether "COc1ccc2[nH]c(O)c(N=Nc3nc(-c4ccccc4)cs3)c2c1" shows growth of 20% or higher.
false (0)

Hi, just wondering whether "O=C1c2cccc3c(N4CCN(c5ccccc5)CC4)ccc(c23)C(=O)N1c1cccc(-c2nn(-c3ccccc3)cc2-c2nc3ccccc3s2)c1" shows growth of 20% or higher.
true (1)

Hi, just wondering whether "Nc1nc(-c2ccccc2)c(N=Nc2ccc(Cl)cc2Cl)s1" shows growth of 20% or higher.
false (0)

Hi, just wondering whether "O=C(CSc1nc2ccccc2c(=O)[nH]1)NNC(=O)c1ccccc1Cl" shows growth of 20% or higher.
true (1)

Hi, just wondering whether "COc1ccc(N=Nc2c(N)nn3c(-c4ccc([N+](=O)[O-])cc4)ccnc23)cc1" shows growth of 20% or higher.
true (1)

Hi, just wondering whether "COc1ccc2[nH]c(O)c(N=NC(=O)c3ccc4nc(-c5ccc(Cl)cc5)[nH]c4c3)c2c1" shows growth of 20% or higher.
true (1)

Hi, just wondering whether "Cn1cc(-c2cc(N)n3nc(-c4c[nH]c5ccc(Cl)cc45)cc3n2)c2cccnc21" shows growth of 20% or higher.
false (0)

Hi, just wondering whether CC1=C(C(=O)OCc2ccccc2)C(c2ccc(N(C)C)cc2)n2c(nc3ccccc32)N1 (configuration not stated) shows growth of 20% or higher.
true (1)
